Reference for the values: patent US20080255193A1

method.description: Aqueous solubility of talnetant
Format: physicochemical
condition.set: aqueous medium, pH 1, simulated gastric fluid
Description: Talnetant has low aqueous solubility (approximately 0.03 mg/ml at pH 1 and 0.001 mg/ml, at pH 7.0). Typically drugs with low aqueous solubility are absorbed slowly across the walls of the gastrointestinal tract (GIT) due to poor dissolution of the solid in the GIT leading to a small diffusive driving force.
assay.readout: solubility

Q: Looking for the measured solubility of "CC[C@H](NC(=O)c1c(O)c(-c2ccccc2)nc2ccccc12)c1ccccc1" , can you help?
A: ~30 µg/mL

---

method.description: Aqueous solubility of talnetant
Type: physicochemical
condition.set: aqueous medium, aqueous buffer; pH 7.0
assay.readout: solubility

Q: Using the record for CC[C@H](NC(=O)c1c(O)c(-c2ccccc2)nc2ccccc12)c1ccccc1 [Talnetant] , report its solubility.
A: ~1 µg/mL
